meta.source: patent US9839642B2

System: Klebsiella pneumoniae expressing VIM-1 (IHMA599644)
Experiment: Antibiotic potentiation activity: synergistic concentration (MITC95) with imipenem, growth by OD600
Format: cell-based
Conditions: 95% inhibition of bacterial growth, strain IHMA599644
Kindly note that classification relies on VIM1 KP599644 MITC95 with these boundaries: low = under 20 µM, intermediate = from 20 µM up to 50 µM, high = 50 µM and over

Known results for compounds:
CCC[C@H](C(=O)O)[C@H](Cc1ccc(-c2cccc(C(N)=O)c2)cc1)c1nn[nH]n1	high
CCCC[C@@H](C(=O)O)[C@@H](Cc1ccc(-c2cn[nH]c2)cc1)c1nn[nH]n1	high
CCC[C@H](C(=O)O)[C@H](Cc1ccc(C2=CCCN(C)C2)cc1)c1nnn[nH]1	intermediate
CC(C)=CCC[C@@H](C(=O)O)[C@H](Cc1ccccc1)c1nnn[nH]1	high
CC(C)[C@H](C(=O)O)[C@H](Cc1ccc(NCCN)nc1)c1nnn[nH]1	low
CCC[C@H](C(=O)O)[C@H](Cc1ccc(-c2ccc(S(N)(=O)=O)cc2)cc1)c1nn[nH]n1	low
CC(C)[C@H](C(=O)O)[C@H](Cc1cccc(Br)n1)c1nnn[nH]1	intermediate
CCC[C@H](C(=O)O)[C@H](Cc1ccc(C)cc1)c1nn[nH]n1	intermediate

Now examine the next entry.
Enquiry: Which VIM1 KP599644 MITC95 category applies to "CCC[C@H](C(=O)O)[C@H](Cc1ccc(O)nc1)c1nnn[nH]1" here?
Return: intermediate
